system-under-test: human orexin-1 receptor (Homo sapiens, UniProt O43613)
Construct: expressed in transfected cells; host or cells: CHO (Chinese hamster ovary) cells, kept under G418 selection
Sequence (O43613 whole entry): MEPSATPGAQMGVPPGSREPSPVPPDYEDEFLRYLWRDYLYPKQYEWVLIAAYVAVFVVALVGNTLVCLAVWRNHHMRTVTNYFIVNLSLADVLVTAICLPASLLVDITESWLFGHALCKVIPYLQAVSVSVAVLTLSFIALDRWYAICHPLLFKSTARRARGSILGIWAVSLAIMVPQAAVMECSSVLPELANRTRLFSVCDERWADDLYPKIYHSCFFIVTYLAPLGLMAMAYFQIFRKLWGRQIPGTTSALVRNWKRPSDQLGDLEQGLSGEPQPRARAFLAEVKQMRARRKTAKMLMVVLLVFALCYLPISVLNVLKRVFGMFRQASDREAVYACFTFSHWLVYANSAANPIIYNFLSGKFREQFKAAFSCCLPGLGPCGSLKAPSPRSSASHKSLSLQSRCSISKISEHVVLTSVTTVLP
assay-details: Intracellular calcium measurement (FLIPR Tetra), orexin receptor antagonistic activity, OX1
Format: cell-based
measurement-parameters: CHO cells expressing human orexin-1 receptor, 3 nM orexin-A, conditions B
observed-property: IC50 (nM)

[a] CCCN(CCc1ccc(OC)c(OC)c1)C(=O)c1nc(N)sc1-c1cccc(C)c1 [Example 110]
[b] COc1ccc(CCN(CC2CC2)C(=O)c2nc(N)sc2-c2cccc(C)c2)cc1Br [Example 163]
# input // returns a or b , whichever has the lower IC50 Reply with the label of the item you choose.
# output a

---

system-under-test: human orexin-2 receptor (Homo sapiens)
Construct: expressed in transfected cells; host or cells: CHO (Chinese hamster ovary) cells, kept under G418 selection
Sequence (O43614 whole entry): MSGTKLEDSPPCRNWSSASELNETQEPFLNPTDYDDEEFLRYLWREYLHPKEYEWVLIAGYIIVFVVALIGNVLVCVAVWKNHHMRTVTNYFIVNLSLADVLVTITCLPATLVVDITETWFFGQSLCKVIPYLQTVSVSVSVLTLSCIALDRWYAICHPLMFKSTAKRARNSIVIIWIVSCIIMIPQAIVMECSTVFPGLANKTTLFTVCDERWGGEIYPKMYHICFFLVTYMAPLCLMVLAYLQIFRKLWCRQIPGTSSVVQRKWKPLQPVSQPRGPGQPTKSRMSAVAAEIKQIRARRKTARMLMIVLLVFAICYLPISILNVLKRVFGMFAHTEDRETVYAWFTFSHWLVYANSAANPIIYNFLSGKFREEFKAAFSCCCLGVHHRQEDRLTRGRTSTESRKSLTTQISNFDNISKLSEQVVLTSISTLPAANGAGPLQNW
assay-details: Intracellular calcium measurement (FLIPR Tetra), orexin receptor antagonistic activity, OX2
Type: cell-based
measurement-parameters: CHO cells expressing human orexin-2 receptor, 3 nM orexin-A, conditions A
Method: The orexin receptor antagonistic activity of the compounds of formula (I) is determined in accordance with one of the following experimental methods. […] Within the Fluorescent Imaging Plate Reader (FLIPR Tetra, Molecular Devices), antagonists are added to the plate in a volume of 10 μl/well, incubated for 10 min and finally 10 μl/well of agonist is added. […] The calculated IC50 values of the compounds may fluctuate depending on the daily cellular assay performance. […]
observed-property: IC50 (nM)

compound=COc1ccc(CCN(CC2CC2)C(=O)c2sc(C)nc2-c2ccc(Cl)cc2)cc1OC display_unit=nM reported=17
compound=COc1ccc(CCN(CC2CC2)C(=O)c2snnc2-c2ccccc2)cc1OC display_unit=nM reported=81
compound=COc1ccc(CCN(CC2CC2)C(=O)c2c(-c3ccccc3)nnc3ccccc23)cc1OC display_unit=nM reported=34
compound=COc1ccc(CCN(CC2CC2)C(=O)c2nc(N(C)C)sc2-c2cccc(C)c2)cc1OC display_unit=nM reported=30
compound="COc1nc(C(=O)N(CC2CC2)CC(O)c2ccc(OC)c(OC)c2)c(-c2cccc(C)c2)s1 (centres unmarked)" display_unit=nM reported=141
compound=COc1ccc(CCN(CC2CC2)C(=O)c2sc(C)nc2-c2ccc(C)cc2)cc1OC display_unit=nM reported=22

[A] COc1ccc(CCN(CC2CC2)C(=O)c2sc(C)nc2-c2ccc(F)cc2)cc1OC
[B] COc1ccc(CCN(CC2CC2)C(=O)c2nc(C3CC3)sc2-c2ccccc2)cc1OC
# input Identify the entry with the smaller IC50: A or B . To answer, give the label that identifies your chosen option.
# output A
(A: 10 nM, B: 35 nM)

---

system-under-test: human orexin-1 receptor (Homo sapiens)
Construct: expressed in transfected cells; host or cells: CHO (Chinese hamster ovary) cells, kept under G418 selection
assay-details: Intracellular calcium measurement (FLIPR Tetra), orexin receptor antagonistic activity, OX1
Assay type: cell-based
measurement-parameters: CHO cells expressing human orexin-1 receptor, 3 nM orexin-A, conditions B, normalized (*) using IC50 of on-plate reference compound
pIC50: −log10 of the molar value.
observed-property: pIC50

molecule="COc1ncc(-c2nccnc2C(=O)N(CCc2c[nH]c3c(C)cccc23)CC2CC2)cn1 [Example 439]" system_under_test="human orexin-1 receptor (Homo sapiens)" reported=6.34
molecule="COc1ccc(-c2cccnc2C(=O)N(CCc2c[nH]c3ccc(F)cc23)CC(F)(F)F)cn1 [Example 312]" system_under_test="human orexin-1 receptor (Homo sapiens)" reported=6.46
molecule="COc1ccc(-c2sc(C)nc2C(=O)N(CCO)CCc2c[nH]c3ccc(F)cc23)cn1 [Example 308]" system_under_test="human orexin-1 receptor (Homo sapiens)" reported=6.45

[1] Cc1cccc(-c2oc(C3CC3)nc2C(=O)N(CCc2c[nH]c3ccccc23)CC2CC2)c1 [Example 607]
[2] COc1ccc(-c2sc(C)nc2C(=O)N(CCc2c[nH]c3cc(F)ccc23)CC2CC2)cn1 [Example 350]
[3] COc1ccc(CCN(CC2CC2)C(=O)c2nc(N)sc2-c2cccc(C)c2)cc1OC(F)F [Example 165]
[4] CCCN(CCc1c[nH]c2ccc(F)cc12)C(=O)c1nccnc1-c1ccc(C)c(C)c1 [Example 292]
# input Returns the items ordered by pIC50, from maximum to minimum. # output: labels, in the requested order
# output 2, 3, 4, 1
